The entries below pair molecules with Ki values for Aurora kinase A (Homo sapiens, UniProt O14965), as found in several publications.

Per the reported Aurora kinase A (Homo sapiens, UniProt O14965) data, `CC(=O)Nc1ccc(Sc2nc(Nc3cc(C)[nH]n3)c3cccc(OCCCN(C)C)c3n2)cc1` has Ki of < 100 nM

Hey, Aurora kinase A (Homo sapiens, UniProt O14965) data for `Cc1cc(Nc2cc(N3CCN(C4CCN(C)CC4)CC3)nc(Sc3cc(F)c4nc(C)ccc4c3)n2)[nH]n1` : Ki came out at 1 to 2 nM

Aurora kinase A (Homo sapiens, UniProt O14965) data for `CN1CCC2(CCN(c3cc(Nc4cc(C5CC5)n[nH]4)nc(Sc4ccc(NC(=O)C5CC5)cc4)n3)CC2)C1` ; its Ki: ≤ 10 nM

The observed Ki for `COc1cc(Nc2ncn(-c3ccccc3)n2)cc(OC)c1OC` when tested with Aurora kinase A (Homo sapiens, UniProt O14965) stands at 100 to 1000 nM

---

pKi: −log10 of the molar value.
From various publications: pKi for Aurora kinase A (Homo sapiens).

The measured pKi that `CN1CCCN(C(=O)c2ccc(-c3cnc4c(-c5ccccn5)c(N)nn4c3)nc2)CC1` showed for Aurora kinase A (Homo sapiens) is > 6.30

Field pKi (Aurora kinase A (Homo sapiens)), entry Cn1cc(Nc2ncc(C(F)(F)F)c(N[C@@H]3C[C@H]4CC[C@@H]3C4)n2)cn1.Cn1cc(Nc2ncc(C(F)(F)F)c(N[C@H]3C[C@@H]4CC[C@H]3C4)n2)cn1 (mixture of isomers) : 6.00 to 7.00

// molecule `Cc1cc(Nc2nc(Oc3ccc4c(c3)OCO4)nc3ccccc23)n[nH]1` , assay Aurora kinase A (Homo sapiens), pKi value: > 7.00

Entry `CCc1ccc(Nc2nc(Nc3cc(C4CC4)[nH]n3)c3ccccc3n2)cc1` ; assay system Aurora kinase A (Homo sapiens); pKi recorded at > 7.00

Log: Aurora kinase A (Homo sapiens), molecule `NC(=O)Cn1cc(Nc2ncc(Br)c(N[C@H]3[C@@H](C(N)=O)[C@@H]4C=C[C@H]3C4)n2)cn1` , pKi = > 7.00

Case `Cc1cc(Nc2nc(-c3ccc(C(C)(C)C)cc3)nc3ccccc23)[nH]n1` , Aurora kinase A (Homo sapiens), pKi recorded as > 7.00

Record `Cc1c(-c2ccnc(Nc3cccc(S(=O)(=O)NC(C)C)c3)n2)sc(=O)n1C` / Aurora kinase A (Homo sapiens), pKi recorded as 6.06

Log: Aurora kinase A (Homo sapiens), molecule `CC(=O)Nc1ccc(Nc2nc(Nc3cc(C)[nH]n3)c3ccccc3n2)cc1` , pKi = > 7.00

Response field pKi (Aurora kinase A (Homo sapiens)) for item `Nc1nn2cc(Cl)cnc2c1-c1ccccn1` : > 6.30

Item `Cc1cc(Nc2ccc(C#N)c(NCCOc3ccc(OC(F)(F)F)cc3)n2)n[nH]1` ; assay system Aurora kinase A (Homo sapiens); pKi reported as 7.10

Aurora kinase A (Homo sapiens) pKi of `c1ccc2c(c1)CCN2c1nc(Nc2cc(C3CC3)n[nH]2)c2ccccc2n1` is > 7.00

Tested on Aurora kinase A (Homo sapiens), the item `Nc1nn2cc(-c3ccc(CN4CCCNCC4)cc3)cnc2c1-c1ccccn1` showed pKi equal to > 6.30

Aurora kinase A (Homo sapiens) pKi of `Cn1cc(Nc2ncc(Cl)c(Nc3ccccc3CO)n2)cn1` is > 7.00

Item: `c1ccc(Nc2ncn(-c3ccnc(N4CCCCCC4)c3)n2)cc1` | System: Aurora kinase A (Homo sapiens) | pKi: > 7.00

---

pKi: −log10 of the molar value.
Please find below pKi measurements for Aurora kinase A (Homo sapiens, UniProt O14965), combined from several publications.

// field: pKi; key: `Cc1cc(Nc2ccc(C#N)c(NCCOc3ccccc3)n2)n[nH]1` ; value = 8.52

Sample `CCN(CC)c1cc(-c2c(N)nn3cc(-c4ccncc4)cnc23)ncn1` ; pKi observed: > 6.30

pKi for NC(=O)[C@@H]1[C@H]2CC[C@H](C2)[C@@H]1Nc1nc(Nc2cnn(CCO)c2)ncc1F.NC(=O)[C@H]1[C@@H]2CC[C@@H](C2)[C@H]1Nc1nc(Nc2cnn(CCO)c2)ncc1F (mixture of isomers) is 6.00 to 7.00

---

pKi: −log10 of the molar value.
Compiled from multiple publications: pKi readings for Aurora kinase A (Homo sapiens, UniProt O14965).

pKi in this record for Cc1cc(Nc2cc(N3CCC(F)C3)nc(Sc3ccc(NC(=O)c4ccccc4Cl)cc3)n2)[nH]n1 (stereo not drawn) : ≥ 8.00

response.value for `COc1cccc(-c2nc(Nc3cc(C)n[nH]3)c3ccccc3n2)c1` (field: pKi) = > 7.00

The reported pKi of the compound `Cc1cc(Nc2nc(Nc3ccc(Cl)cc3)nc3ccccc23)n[nH]1` was > 7.00

Measured pKi of CC(O)Cn1cc(Nc2ncc(F)c(NC3C4C=CC(C4)C3C(N)=O)n2)cn1 (mixture of isomers) : 6.00 to 7.00

Lab note: `COc1nc(Nc2cc(C)[nH]n2)cc(N2CCN(C)CC2)n1` gave pKi of 5.00 to 6.00

// field: pKi; key: `COc1cccc(N/N=C2\C(=O)NN=C2c2ccc(OC)c(OC)c2)c1` ; value = > 7.00

Record `Cc1cnc(Nc2cc(N3CC[C@H](N(C)C)C3)nc(Sc3ccc(NC(=O)C4CC4)cc3)n2)s1` . Reported pKi: ≥ 8.00

// pKi value for C[C@@H](O)Cn1cc(Nc2ncc(F)c(N[C@@H]3[C@H]4CC[C@H](C4)[C@@H]3C(N)=O)n2)cn1.C[C@@H](O)Cn1cc(Nc2ncc(F)c(N[C@H]3[C@@H]4CC[C@@H](C4)[C@H]3C(N)=O)n2)cn1 (mixture of isomers) : 6.00 to 7.00

Per the record, `CN(C)Cc1ccc(-c2cnc3[nH]cc(-c4oncc4-c4cccc(F)c4F)c3c2)cc1` has pKi of 6.00 to 6.70

The recorded pKi for entry `CCOC(=O)c1c(N)nn2cc(-c3ccc(Cl)cc3)cnc12` equals 5.30 to 6.30

compound `Cc1cc(Nc2cc(N3CCC4(CC3)CCN(C(C)C)C4)nc(Sc3ccc(NC(=O)C4CC4)cc3)n2)[nH]n1` , pKi observed: ≥ 8.00

For record `CNCCN(C)C(=O)c1cccc(-c2cnc3c(-c4ccccn4)c(N)nn3c2)c1` the listed pKi is 5.30 to 6.30

Value of pKi reported for the compound `Cc1c(-c2ccnc(Nc3cccc(S(=O)(=O)N4CCOCC4)c3)n2)sc(=O)n1C` is 5.85

Please fill in: pKi reported for `CCn1cc(Nc2ncc(Cl)c(N[C@H]3[C@@H](C(N)=O)C[C@H]4C[C@@H]3C4(C)C)n2)cn1` = > 7.00

What the record says about `NC(=O)[C@@H]1[C@H](Nc2nc(Nc3cnn(-c4ccccc4)c3)ncc2Br)[C@H]2C=C[C@@H]1C2` : pKi is > 7.00

---

// cross-source set; read-out = Ki; system = UniProt O14965

Ki recorded for this compound, `Cc1cc(Nc2cc(-c3ccccc3)n[nH]2)nc(-c2ccccc2OC(F)(F)F)n1` , is 1000 to 20000 nM

Recorded Ki (compound `COC(=O)Nc1ccc(Nc2ncn(-c3ccnc(N4C[C@@H](C)N(C(C)=O)[C@@H](C)C4)c3)n2)cc1` ): < 100 nM

Ki measured on `Cc1cnc2c(-c3cc(Nc4ccccc4)ncn3)c(N)nn2c1` = < 500 nM

Given item `CN(C)Cc1ccnc(-c2cnc3[nH]cc(-c4oncc4-c4cccc(F)c4F)c3c2)c1` , the value recorded as its Ki is 200 to 1000 nM

Given item `COc1ccc(Sc2nc(Nc3cc(C4CC4)[nH]n3)c3ccccc3n2)cc1OC` , the value recorded as its Ki is < 100 nM

Ki reading for `FC(F)(F)c1ccc2[nH]nc(Nc3nc(-c4ccccc4Cl)nc4ccccc34)c2c1` : 100 to 1000 nM

In plain terms, Cn1cc(Nc2ncc(Cl)c(N[C@@H]3CC[C@@H]3C(N)=O)n2)cn1.Cn1cc(Nc2ncc(Cl)c(N[C@H]3CC[C@H]3C(N)=O)n2)cn1 (mixture of isomers) has a documented Ki of < 100 nM

# Ki (compound: `O=C(O)c1cccc(Nc2nc(Nc3cc(C4CC4)[nH]n3)c3ccccc3n2)c1` ) is < 100 nM

Ki measured on `COc1cccc2c(Nc3n[nH]c4ccc(F)cc34)nc(-c3ccccc3C(F)(F)F)nc12` = 1000 to 20000 nM

response.value for `CC(C)CN(C)C(=O)c1ccc(-c2cnc3c(-c4ccccn4)c(N)nn3c2)nc1` (field: Ki) = < 500 nM

Briefly, Ki measured for `CC(=O)N1CCCN(c2cc(-n3cnc(Nc4ccccc4)n3)ccn2)CC1` : 100 to 1000 nM

Sure, the documented Ki for `CCN(CCC#N)C(=O)c1ccc(-c2cnc3c(-c4ccccn4)c(N)nn3c2)nc1` is < 500 nM

GET /value?item= `Fc1cccc(-c2cnoc2-c2c[nH]c3ncc(-c4ccc(N5CCNCC5)cc4)cc23)c1F` &field=Ki returns < 200 nM

Reported Ki for `c1ccc2cc(Oc3nc(Nc4cc(C5CC5)[nH]n4)cc(N4CCOCC4)n3)ccc2c1` was 100 to 1000 nM

Field Ki (entry CN(C)C(=O)Cn1cc(Nc2ncc(Cl)c(N[C@@H]3[C@H](C(N)=O)[C@H]4C=C[C@@H]3C4)n2)cn1.CN(C)C(=O)Cn1cc(Nc2ncc(Cl)c(N[C@H]3[C@@H](C(N)=O)[C@@H]4C=C[C@H]3C4)n2)cn1 (mixture of isomers) ) reads < 100 nM
